# ASSAY_TARGET: UHMK1 (Homo sapiens)
# Construct: endogenous in cells
# Sequence (Q8TAS1 1-419): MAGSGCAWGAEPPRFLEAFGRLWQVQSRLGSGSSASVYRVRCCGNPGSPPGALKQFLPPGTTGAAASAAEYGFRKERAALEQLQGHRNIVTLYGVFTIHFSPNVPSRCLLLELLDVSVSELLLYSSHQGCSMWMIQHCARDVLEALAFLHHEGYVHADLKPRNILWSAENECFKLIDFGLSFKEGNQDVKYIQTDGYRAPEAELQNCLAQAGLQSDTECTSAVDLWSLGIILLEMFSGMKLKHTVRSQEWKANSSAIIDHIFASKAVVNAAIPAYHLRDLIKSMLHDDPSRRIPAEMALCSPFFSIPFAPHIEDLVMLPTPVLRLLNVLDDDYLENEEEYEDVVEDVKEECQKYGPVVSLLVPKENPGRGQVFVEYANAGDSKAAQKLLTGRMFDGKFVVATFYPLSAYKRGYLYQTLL
# ASSAY_OVERVIEW: KAM-matrix competition in K562 lysate
# ASSAY_CONTEXT: KAM 0.001-10 uM, read-out: RB50 (the source's name)
OBSERVABLE: IC50

What reported IC50 corresponds to N#CCc1ccc(Nc2nc(NCCCN)cc(Nc3cc(C4CC4)[nH]n3)n2)cc1 [KAM] on UHMK1 (Homo sapiens)?
> 10 µM

* * *

# ASSAY_TARGET: SIK3 (Homo sapiens, UniProt Q9Y2K2)
# Construct: endogenous in cells
# Sequence (Q9Y2K2 whole entry): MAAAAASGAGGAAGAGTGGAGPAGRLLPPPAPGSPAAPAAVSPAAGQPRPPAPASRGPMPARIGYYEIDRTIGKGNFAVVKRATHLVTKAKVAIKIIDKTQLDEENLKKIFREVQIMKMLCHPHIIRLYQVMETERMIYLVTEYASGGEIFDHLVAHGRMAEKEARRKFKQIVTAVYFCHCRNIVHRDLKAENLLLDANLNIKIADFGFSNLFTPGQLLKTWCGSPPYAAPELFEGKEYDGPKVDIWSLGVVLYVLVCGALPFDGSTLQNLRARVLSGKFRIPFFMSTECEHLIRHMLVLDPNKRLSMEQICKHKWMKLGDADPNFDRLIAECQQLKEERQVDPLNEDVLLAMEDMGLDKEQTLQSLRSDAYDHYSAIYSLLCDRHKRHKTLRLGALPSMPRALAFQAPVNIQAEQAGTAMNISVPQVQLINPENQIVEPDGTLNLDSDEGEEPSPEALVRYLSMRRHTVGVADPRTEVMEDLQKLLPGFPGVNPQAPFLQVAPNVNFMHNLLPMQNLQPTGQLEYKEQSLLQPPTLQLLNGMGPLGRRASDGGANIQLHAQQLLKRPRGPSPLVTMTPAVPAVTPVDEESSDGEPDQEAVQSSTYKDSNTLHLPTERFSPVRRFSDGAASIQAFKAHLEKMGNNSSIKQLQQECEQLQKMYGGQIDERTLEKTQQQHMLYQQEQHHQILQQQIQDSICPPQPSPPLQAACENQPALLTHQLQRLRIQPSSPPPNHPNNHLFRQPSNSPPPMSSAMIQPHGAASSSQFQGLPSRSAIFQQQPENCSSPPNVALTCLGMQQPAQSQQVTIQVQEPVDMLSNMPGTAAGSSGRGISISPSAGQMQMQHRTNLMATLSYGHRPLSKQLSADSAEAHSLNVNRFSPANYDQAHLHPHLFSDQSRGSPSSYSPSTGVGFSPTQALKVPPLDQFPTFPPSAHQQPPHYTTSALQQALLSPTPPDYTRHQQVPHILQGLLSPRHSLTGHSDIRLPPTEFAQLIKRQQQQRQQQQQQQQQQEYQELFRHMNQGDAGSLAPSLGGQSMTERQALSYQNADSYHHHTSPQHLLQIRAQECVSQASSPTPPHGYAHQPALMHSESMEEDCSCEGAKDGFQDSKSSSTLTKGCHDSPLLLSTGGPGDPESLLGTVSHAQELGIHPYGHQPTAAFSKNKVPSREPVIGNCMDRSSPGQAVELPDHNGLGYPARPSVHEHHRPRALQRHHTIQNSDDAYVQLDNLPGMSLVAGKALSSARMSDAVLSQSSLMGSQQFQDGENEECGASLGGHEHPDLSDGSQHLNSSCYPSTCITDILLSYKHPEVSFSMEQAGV
# ASSAY_OVERVIEW: KAM-matrix competition in K562 lysate
# ASSAY_CONTEXT: KAM 0.001-10 uM, read-out: RB50 (the source's name)
# Protocol: Supplement 12953_2017_125_MOESM1_ESM.zip/MS_Supp Info.xlsx, sheet "KAM" | column: 10 uM KAM; 1 uM KAM; 0.1 uM KAM; 0.01 uM KAM; 0.001 uM KAM; RB50
OBSERVABLE: IC50

Query (compound): `N#CCc1ccc(Nc2nc(NCCCN)cc(Nc3cc(C4CC4)[nH]n3)n2)cc1` ; field requested: IC50
> 10 µM

* * *

# ASSAY_TARGET: CHEK1 (Homo sapiens, UniProt O14757)
# Construct: endogenous in cells
# Sequence (O14757 1-476): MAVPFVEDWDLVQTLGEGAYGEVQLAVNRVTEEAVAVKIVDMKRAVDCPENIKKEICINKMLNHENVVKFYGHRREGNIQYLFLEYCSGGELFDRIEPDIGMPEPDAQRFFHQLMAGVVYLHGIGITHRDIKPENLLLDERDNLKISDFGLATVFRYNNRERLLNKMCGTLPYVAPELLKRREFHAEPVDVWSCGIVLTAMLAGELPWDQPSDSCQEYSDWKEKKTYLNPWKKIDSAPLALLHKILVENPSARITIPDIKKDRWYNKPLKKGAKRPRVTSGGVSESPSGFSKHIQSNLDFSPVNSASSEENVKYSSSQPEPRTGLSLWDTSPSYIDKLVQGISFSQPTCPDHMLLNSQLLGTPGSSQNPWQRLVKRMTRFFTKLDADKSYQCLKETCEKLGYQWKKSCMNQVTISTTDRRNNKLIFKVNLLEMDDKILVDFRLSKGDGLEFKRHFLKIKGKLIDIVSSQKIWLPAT
# ASSAY_OVERVIEW: KAM-matrix competition in K562 lysate
# ASSAY_CONTEXT: read-out: RB50 (the source's name)
OBSERVABLE: IC50
# include the unit after the value

Query (compound): `N#CCc1ccc(Nc2nc(NCCCN)cc(Nc3cc(C4CC4)[nH]n3)n2)cc1` ; field requested: IC50
1290 nM
